Target: human Nav1.7 (Homo sapiens (Human), UniProt Q15858)
Sequence (Q15858 whole entry): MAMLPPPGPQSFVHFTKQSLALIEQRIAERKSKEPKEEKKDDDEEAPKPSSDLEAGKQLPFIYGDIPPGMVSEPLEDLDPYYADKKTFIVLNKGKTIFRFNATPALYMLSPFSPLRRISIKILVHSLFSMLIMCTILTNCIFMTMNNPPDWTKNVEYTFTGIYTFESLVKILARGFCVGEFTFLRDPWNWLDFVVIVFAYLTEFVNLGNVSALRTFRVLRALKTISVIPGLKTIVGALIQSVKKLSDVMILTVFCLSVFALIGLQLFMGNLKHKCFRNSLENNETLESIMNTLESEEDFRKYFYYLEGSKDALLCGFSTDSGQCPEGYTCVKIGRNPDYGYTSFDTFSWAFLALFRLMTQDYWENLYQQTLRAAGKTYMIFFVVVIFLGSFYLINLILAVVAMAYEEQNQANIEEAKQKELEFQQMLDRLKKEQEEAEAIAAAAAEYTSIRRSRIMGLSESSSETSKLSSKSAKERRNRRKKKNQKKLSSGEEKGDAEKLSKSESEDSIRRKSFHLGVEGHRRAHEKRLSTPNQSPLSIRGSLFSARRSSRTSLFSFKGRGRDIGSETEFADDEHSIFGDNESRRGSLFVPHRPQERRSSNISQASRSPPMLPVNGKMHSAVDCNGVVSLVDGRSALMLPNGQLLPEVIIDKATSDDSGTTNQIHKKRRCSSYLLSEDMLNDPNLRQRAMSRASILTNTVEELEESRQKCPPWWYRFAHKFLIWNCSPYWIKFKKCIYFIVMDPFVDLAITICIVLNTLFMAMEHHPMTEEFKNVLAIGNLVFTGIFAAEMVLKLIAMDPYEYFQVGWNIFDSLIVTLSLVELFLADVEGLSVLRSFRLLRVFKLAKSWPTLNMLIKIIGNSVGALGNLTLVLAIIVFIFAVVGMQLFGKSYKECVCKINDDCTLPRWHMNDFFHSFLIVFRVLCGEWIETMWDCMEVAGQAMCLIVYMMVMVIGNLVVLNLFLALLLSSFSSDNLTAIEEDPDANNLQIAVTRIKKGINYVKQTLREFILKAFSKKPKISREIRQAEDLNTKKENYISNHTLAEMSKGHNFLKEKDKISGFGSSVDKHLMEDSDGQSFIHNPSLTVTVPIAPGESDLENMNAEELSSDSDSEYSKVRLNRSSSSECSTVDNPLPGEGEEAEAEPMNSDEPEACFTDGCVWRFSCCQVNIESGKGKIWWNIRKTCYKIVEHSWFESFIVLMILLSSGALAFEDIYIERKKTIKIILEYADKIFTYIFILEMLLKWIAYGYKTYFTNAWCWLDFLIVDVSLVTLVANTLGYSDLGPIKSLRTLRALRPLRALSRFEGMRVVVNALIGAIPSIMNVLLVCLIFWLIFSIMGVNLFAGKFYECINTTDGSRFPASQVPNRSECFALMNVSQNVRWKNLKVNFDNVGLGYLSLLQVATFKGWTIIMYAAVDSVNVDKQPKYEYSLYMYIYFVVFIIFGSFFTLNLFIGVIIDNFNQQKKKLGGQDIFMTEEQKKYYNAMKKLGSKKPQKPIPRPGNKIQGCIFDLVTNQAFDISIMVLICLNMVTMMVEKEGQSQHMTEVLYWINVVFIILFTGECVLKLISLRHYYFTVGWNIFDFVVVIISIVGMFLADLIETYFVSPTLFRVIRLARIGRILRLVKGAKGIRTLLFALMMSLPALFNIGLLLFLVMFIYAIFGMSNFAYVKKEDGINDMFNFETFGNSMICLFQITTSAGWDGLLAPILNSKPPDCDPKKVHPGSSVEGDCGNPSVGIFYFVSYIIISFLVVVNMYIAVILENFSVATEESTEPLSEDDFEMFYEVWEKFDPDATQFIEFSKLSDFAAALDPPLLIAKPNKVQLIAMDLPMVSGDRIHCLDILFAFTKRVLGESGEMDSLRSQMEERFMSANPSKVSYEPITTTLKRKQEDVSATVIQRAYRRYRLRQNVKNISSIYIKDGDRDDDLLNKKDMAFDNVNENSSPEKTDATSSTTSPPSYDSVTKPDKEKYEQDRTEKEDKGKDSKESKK
Assay: Nav 1.7 in vitro PatchXpress (PX) assay
Type: cell-based
Details: in-vitro Nav 1.7 PX data
pIC50: −log10 of the molar value.

| compound | pIC50 |
| --- | --- |
| COc1cccc(CSc2ncc(-c3cc(F)c(C(=O)NS(C)(=O)=O)cc3C)cc2Cl)c1 [Example 818] | 6.77 |
| COc1cc(C(=O)NS(C)(=O)=O)c(F)cc1-c1cnc(O[C@@H]2CC[C@H]2C)c(Cl)c1 [Example 733] | 6.66 |
| COc1nccc(C)c1-c1cc(C(=O)NS(C)(=O)=O)ccc1-c1cnc(OCC(C)C)c(Cl)c1 (single isomer, unassigned) [Example 821] | 4.50 |
| Cc1cc(C(=O)NS(C)(=O)=O)c(F)cc1-c1ccc(CC2CC2)c(Cl)c1 [Example 813] | 6.85 |
